# credit: the supplement of paper PMC11865577

tested on: TO-3-N3 (biotin conjugate); test: pull-down binding Z-score (relative to library population); higher = stronger binding; settings: RNA library: Library-2
property-label: pull-down binding Z-score
Form rule: numeric answer, no unit written next to it.

Field: example entries. Status: answers known.
| biosequence | pull-down binding Z-score |
| --- | --- |
| GCGCUGCCAGAAACUGGCUAAGCGC [bulge-UA] | -0.669 |
| AACAGCAGACAACCCUUAAGGGUGUAGAAGCUGUU | -0.872 |
| GUAUACUGAGCUUAUGUAUGCAUCUGCAUAC [hsa-mir-5591] | 0.357 |
| CACGCCGCGCCGCCGGGUCCCUCCUCCCCGGAGAGGCUG [hsa-mir-4674] | 0.257 |

// field: pull-down binding Z-score; key: UUUAGAAAAGAGAAUUCCAAA [hsa-mir-1252] ; value = -0.294

// field: pull-down binding Z-score; key: GACUUUUCUAUUUUCCAAAAGC [hsa-mir-423] ; value = -0.475

// field: pull-down binding Z-score; key: UUUUUCCAUUGUAAGUAAUGGGAAAA [hsa-mir-548f-5] ; value = -0.644

// field: pull-down binding Z-score; key: GCUCUCUGAUGC [IAV_invivo_NP_5_Motif_10+IAV_invivo_NP_5_Motif_10] ; value = -0.607

###

system: TO-3-N3 (biotin conjugate); assay: pull-down binding Z-score (relative to library population); higher = stronger binding; details: RNA library: Library-2
property-label: pull-down binding Z-score
Form rule: numeric answer, no unit written next to it.

// field: pull-down binding Z-score; key: GAGGCUAUGUACACACCGCAUACAGUCUUACAGGCUGUUGGGGCUUGUGUUCUUUGCAAUUC [SHAPE_invitro_SARS-CoV-2_Motif_296] ; value = -0.256

// field: pull-down binding Z-score; key: AACUGUGCGGCCGGCCACACCGUCACACCGGGU [hsa-mir-8083] ; value = 1.14

// field: pull-down binding Z-score; key: UUGUUCUGAUGUACUACGACAA [hsa-mir-7-3] ; value = -0.716

// field: pull-down binding Z-score; key: UCACAGAAUGCUGUAGCCUCAAAGAUUUUGGGACUACCAACUCAAACUGUUGA ; value = -0.508

###

test system: TO-N3 (biotin conjugate); assay: pull-down binding Z-score (relative to library population); higher = stronger binding; conditions: RNA library: Library-2
Mark Criterion met for reported pull-down binding Z-score of 0.2 or greater; mark Criterion not met for anything smaller.

Input line: Could you tell me if the measured pull-down binding Z-score of AUUCUAUUCUAUUCUAUUCU [r(AUUCU)4] reaches 0.2 or more?
Output line: Criterion met

Input line: Could you tell me if the measured pull-down binding Z-score of GAGCUUCGUGUACAUUAUCUAUUAGAAAAUGAAGUAC [hsa-mir-4724] reaches 0.2 or more?
Output line: Criterion not met

###

tested on: TO-3-N3-2 (biotin conjugate); experiment: pull-down binding Z-score (relative to library population); higher = stronger binding; settings: RNA library: Library-2
property-label: pull-down binding Z-score
Form rule: numeric answer, no unit written next to it.

| biosequence | data-value |
| --- | --- |
| GCGCUGCCAGAAACUGGCGGGAGCGC [bulge-GGG] | 0.00655 |
| GGGUGGGUGGGUGGGUGGGUGGGUGGGUGGGU [G4_r(GGGU)8] | 10.2 |
| ACUCCCAGAACUCAUUAAGUUGGUAGU [hsa-mir-1278] | -0.184 |
| CCUGCCUGCCUGCCUG [r(CCUG)4] | 0.0557 |
| ACUCCUAGGUCACGGAAGU [hsa-mir-6838] | -0.33 |

Measured pull-down binding Z-score (TO-3-N3-2 (biotin conjugate)), entry CACUACAAGAAGAAUGUAGUUGUG [hsa-mir-19a] : 0.234
